# procedureSummary: Metabolic stability test in pooled human liver microsomes
# Format: in vitro ADME
# details: human liver microsomes 0.5 mg protein/mL, 1 mmol/L NADPH, 37° C., 30 minutes
Field: label. Allowed values: 1 (yes) (MS_h_% (remaining amount of compound after reaction, 0 minute = 100%) < 70%) or 0 (no) (MS_h_% (remaining amount of compound after reaction, 0 minute = 100%) >= 70%).

Problem: Lab note: MS_h_% (remaining amount of compound after reaction, 0 minute = 100%) threshold 70%. Does this molecule come in strictly under it? CCc1nc2ccc(Cl)cn2c1C(=O)NCc1ccc(N2CCN(c3ccc(OC(F)(F)F)cc3)C(C)(C)C2)c(F)c1 [Compound I-1-32]
Solution: 1 (yes)

Problem: Does the reported MS_h_% (remaining amount of compound after reaction, 0 minute = 100%) of Cc1cn2c(C(=O)NCc3ccc(N4CC=C(c5ccc(OC(F)(F)F)cc5)CC4)c(F)c3)c(C)nc2s1.Cl [Compound I-3-12] stay below 70%?
Solution: 0 (no)

Problem: Lab log: compare recorded MS_h_% (remaining amount of compound after reaction, 0 minute = 100%) with 70%; is it strictly lower for Cc1ccn2c(C(=O)NCc3ccc(N4CCN(c5ccc(C(F)(F)F)cn5)CC4)c(C(F)(F)F)c3)c(C)nc2c1 [Compound I-2-13] ?
Solution: 1 (yes)

Problem: Item COc1ccn2c(C(=O)NCc3ccc(N4CCN(c5ccc(OC(F)(F)F)cc5)[C@@H](C)C4)c(F)c3)c(C)nc2c1 [Compound I-2-2] : MS_h_% (remaining amount of compound after reaction, 0 minute = 100%) beneath 70%, strictly?
Solution: 0 (no)

Problem: Consider Cc1nc2ccccn2c1C(=O)NCc1ccc(N2CCN(c3ccc(OC(F)(F)F)cc3)[C@@H](C)C2)c(F)c1.Cl [Compound I-1-52] . Does its MS_h_% (remaining amount of compound after reaction, 0 minute = 100%) lie strictly below 70%?
Solution: 0 (no)

Problem: hey, is MS_h_% (remaining amount of compound after reaction, 0 minute = 100%) for Cc1ccc2nc(C)c(C(=O)NCc3ccc(S(F)(F)(F)(F)F)cc3)n2c1 [Compound I-3-44] lower than 70% or not?
Solution: 1 (yes)

Problem: For the molecule COc1ccn2nc(C)c(C(=O)NCc3ccc(N4CCN(c5ccc(OC(F)(F)F)cc5)[C@@H](C)C4)c(Cl)c3)c2c1.Cl [Compound I-1-132] , is MS_h_% (remaining amount of compound after reaction, 0 minute = 100%) under 70%?
Solution: 1 (yes)
